- Experiment Description: reversal of MRP1-mediated doxorubicin resistance, pilot screen, H69AR cells, doxorubicin co-treatment (AID 601)
- Test Conditions: H69AR cells + 2 uM doxorubicin, CellTiter-Glo, 72 h; at 10 µM; stronger effect = higher value
Measured Endpoint: differential viability (reversal) (%)
# number only, unit % dropped from output

// query Which measured differential viability (reversal) value corresponds to O=C(OCCCN1CCCC1)C1(c2ccccc2)CCCC1 ?
// result 6.39

// query Next: O=C(NCCCN1CCCC1=O)c1ccc2c(c1)NC(=O)C(N1CCOCC1)S2 (configuration not stated)
// result 6.1

// query Can you handle CC(C)=CCCC(C)NC(=O)NC1CCCCC1 (configuration not stated) next?
// result 18

// query Try this compound too: O=c1cc(NCc2ccccc2)nc2n1CCCS2
// result 0.29

// query Follow-up entry: Cc1ccc(-n2ncc3c(=O)[nH]c(SCC(=O)N4CCN(c5ccccc5)CC4)nc32)cc1
// result 4.85

// query Consider next the compound Brc1cccc(-c2cnc3n2CCCCC3)c1 in the same way.
// result 11.1

// query Record: Cc1ccc(NC2=NC3(CCCCC3)N=C(N)N2)c(C)c1
// result 18.6

// query Another: C=CCc1cc(OC)ccc1OCC(O)CN1CCN(c2ccc(OC)cc2)CC1 (configuration not stated)
// result -4.29

// query Can you check CCCCOc1ccc(C(=O)Nn2cnnc2)cc1 next?
// result 0.185

// query Please give the result for COc1nc(OC)nc(N2CCC(C(=O)NC3CCCCCC3)CC2)n1 too.
// result 4.45

// query Another compound to look at: COc1cc(-c2nnc(SCc3c(F)cccc3Cl)o2)cc(OC)c1OC
// result 3.85

// query And the next one, Cn1c(=O)cc(OCC(=O)NCCCN2CCN(c3cccc(Cl)c3)CC2)c2ccccc21 ?
// result -1.39

// query Record: COc1cccc(OC)c1OCCN1CCN(C(=O)c2ccco2)CC1
// result 10.7

// query Let us now turn to COc1cccc(NC(=O)COC(=O)c2ccco2)c1
// result 2.71

// query Check CN(C)S(=O)(=O)c1ccc(C(=O)N2CCC(c3nc4ccccc4o3)CC2)cc1 too.
// result 8.86

// query Request: CCOc1nc(SCCOc2ccccc2)nc(N(C)C)n1
// result 4.17

// query Try CCOc1ccccc1-n1c(SCC(=O)NCc2ccco2)nnc1-c1ccncc1 next.
// result 39.9

// query Do the same for CCC(=O)Nc1ccc(F)c(Cl)c1 please
// result 3.67

// query Next: COc1ccc(C2C(C#N)=C(N)OC3=C2C(=O)CC(C)C3)c(OC)c1OC (configuration not stated)
// result 3.42

// query And what about the compound c1ccc(Cc2nnc3n2CCCCC3)cc1 ?
// result 1.42

// query Next: Cn1c(=O)cc(SCC(=O)N2CCOCC2)c2ccc(Cl)cc21
// result 9.88

// query Now the same for CCOC(=O)c1c(-c2cccs2)csc1NC(=O)CCCC(=O)O
// result 1.06

// query Field entry: O=S(=O)(Cc1ccccc1)N1CCCCCC1
// result 2.14

// query Now this one: Cc1cc(NCCN2CCCCC2)n2c(nc3ccccc32)c1C#N
// result -7.47

// query Repeat for the following compound: Cc1ccccc1C1CC(c2ccccc2)Nc2ncnn21 (configuration not stated)
// result -31.1

// query // repeat for NC(=O)C1(N2CCCCC2)CCN(Cc2ccccc2Cl)CC1 and report
// result 3.07

// query Next up: COC(=O)c1cccc(NC(=O)Cc2coc3cc(OC)ccc23)c1
// result 15.6

// query Then this compound: Clc1ccc2nc(N3CCCCC3)[nH]c2c1
// result 11.6

// query Please do the same for CC1(C)CC(=O)C(C#N)=C(NCCCO)C1 as well.
// result -2.31

// query Can you check CCOC(=O)CNC(=O)CSc1ncnc2c1cnn2-c1ccccc1 next?
// result 6.58

// query Now the compound CCOc1ccc(S(=O)(=O)n2nc(C)cc2C)c2ccccc12
// result 2.17

// query Moving on to the next compound: CC(C)CCNC(=O)C(c1cccs1)N(CC1CCCO1)C(=O)Cn1nnc2ccccc21 (configuration not stated)
// result 4.32

// query Same read-out for O=C(Nc1ccc(N2CCOCC2)cc1)c1cccc(S(=O)(=O)N2CCCC2)c1 ?
// result 5.26

// query # iterate: CCc1ccccc1-n1c(SCC(=O)N2CCCC2)nnc1-c1ccccn1
// result 1.95

// query Again, but for CC(=O)NC(=O)NC1CSCC1OC(C)=O (configuration not stated)
// result 5.96

// query What do you get for CN(C)c1nc(Oc2ccc(=O)n(C)n2)nc(N2CCOCC2)n1 ?
// result 1.74

// query # iterate: CC(C)Cn1c(CN(Cc2ccccc2)Cc2ccccc2)nc2c1c(=O)n(C)c(=O)n2C
// result 1.2

// query Quick one: CCNC(=O)N(C(=O)NCC)n1c(C)nnc1C
// result 18.7

// query Next up: CCOc1cc(C2C(C(=O)c3ccccc3)=C(C(=O)OC)Nc3nnnn32)ccc1O (configuration not stated)
// result 16.4

// query Also need O=C(CSc1nnc(Cc2cccs2)n1Cc1ccco1)Nc1cccc(Cl)c1 , thanks.
// result -8.62

// query And what about the compound CCc1nc2scc(-c3ccccc3)c2c(=O)n1N ?
// result -8.11

// query Also Cc1ccc(C)c(OCC(O)CN2C(C)CCCC2C)c1 (configuration not stated) ?
// result 0.415

// query Would you mind doing Cn1c2c(c(=O)n(C)c1=O)C(CC(=O)Nc1ccccc1)C(=O)N2 (configuration not stated) as well?
// result 21.8

// query Same for CCOc1cc(C(=O)N2CCN(c3ccccc3)CC2)cc(OCC)c1OCC
// result 3.12

// query Similarly, CCS(=O)(=O)N1CCCC(C(=O)NCc2ccccc2Cl)C1 (configuration not stated) ?
// result 5.79

// query Also Cn1c(/C(C#N)=C/Nc2ccccn2)nc2ccccc21 , if possible.
// result -12.4

// query Request: CCOc1ccc(CN2C(=O)c3ccccc3C2C(=O)NCc2cccnc2)cc1 (configuration not stated)
// result 1.78

# credit: PubChem BioAssay
